Give melting point for every item shown.

**Q:** Supply melting point value. Item: CC1(C)C=Cc2c(ccc(/C=N/c3ccc(NS(=O)(=O)c4ccccc4F)cc3)c2O)O1
**A:** 175 to 177 °C

**Q:** Specify measured melting point for CC1(C)C=Cc2c(ccc(/C=N/c3ccc(NS(=O)(=O)c4ccc(C(C)(C)C)cc4)cc3)c2O)O1 .
**A:** 142 to 144 °C

**Q:** For the compound CC(=O)Nc1ccc(S(=O)(=O)Nc2ccc(/N=C/c3ccc4c(c3O)C=CC(C)(C)O4)cc2)cc1 , give its reported melting point.
**A:** 161 to 163 °C

**Q:** Tell me its melting point given CC(C)=CCCC1(C)C=Cc2c(ccc(/C=N/c3ccc(NS(=O)(=O)c4ccc(Cl)s4)cc3)c2O)O1 (stereo not shown) as the entry.
**A:** 97 to 99 °C

---

Consider the following molecules; for each one, report its pKd.
Target: PVY CP^S125A (Potato virus Y, UniProt Q02963, S2919A)
Construct: 6xHis (N, cleaved yes); S-tag (N, cleaved yes); thioredoxin (Trx, from pET-32a)
Sequence (Q02963 2795-3061 S2919A): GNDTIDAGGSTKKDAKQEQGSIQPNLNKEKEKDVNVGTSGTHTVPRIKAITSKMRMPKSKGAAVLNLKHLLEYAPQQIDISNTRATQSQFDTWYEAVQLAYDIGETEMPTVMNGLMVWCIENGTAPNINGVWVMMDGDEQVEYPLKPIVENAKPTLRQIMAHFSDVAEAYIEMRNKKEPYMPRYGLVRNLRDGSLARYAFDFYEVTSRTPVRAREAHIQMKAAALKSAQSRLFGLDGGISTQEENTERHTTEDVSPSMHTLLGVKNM
Test: MST assay for affinity with mutant PVY CP^S125A
Settings: 25.0°C, read-out: Kd for binding to PVY CP^S125A
On this scale, pKd is minus log10 of a concentration expressed in M (mol/L).

**Q:** // Input: Cc1ccc(S(=O)(=O)Nc2ccc(/N=C/c3ccc4c(c3O)C=CC(C)(C)O4)cc2)cc1 . Output its pKd only.
**A:** 3.90

**Q:** Read the entry CC1(C)C=Cc2c(ccc(/C=N/c3ccc(NS(=O)(=O)c4ccc(Cl)cc4)cc3)c2O)O1 and write its reported pKd.
**A:** 3.51

---

Could you please report measured Kd for the items listed next?
Numbers only here, please. The scale is µM.

**Q:** Provide Kd, tested on PVY CP^wt (Potato virus Y), for Cc1ccc(S(=O)(=O)Nc2ccc(/N=C/c3ccc4c(c3O)C=CC(C)(C)O4)cc2)cc1 [Compound C50] .
**A:** 1.6

**Q:** GET Kd | system: PVY CP^wt (Potato virus Y) | item: CC1(C)C=Cc2c(ccc(/C=N/c3ccc(NS(=O)(=O)c4ccc(Cl)cc4)cc3)c2O)O1 [Compound C6]
**A:** 4.4

**Q:** Consider the compound CC(C)=CCCC1(C)C=Cc2c(ccc(/C=N/c3ccc(NS(=O)(=O)c4ccc(C)cc4)cc3)c2O)O1 (stereo not shown) [Compound C42] tested on PVY CP^wt (Potato virus Y); state its Kd.
**A:** 497

**Q:** For PVY CP^wt (Potato virus Y), give the measured Kd of the entry CNCC(=O)N[C@@H](CO)C(=O)N[C@H]1[C@H](O)[C@@H](O)[C@H](n2ccc(N)nc2=O)O[C@@H]1C(N)=O [NNM, Ningnanmycin, reference compound]
**A:** 8.6

---

Exercise: for every item that follows, state its recorded melting point.

**Q:** Item CC(C)=CCCC1(C)C=Cc2c(ccc(/C=N/c3ccc(NS(=O)(=O)c4c(F)cccc4F)cc3)c2O)O1 (stereo not drawn) [Compound C47] : provide melting point
**A:** 80 to 82 °C

**Q:** Provide measured melting point value, entry: CC1(C)C=Cc2c(ccc(/C=N/c3ccc(NS(=O)(=O)c4c(F)cccc4F)cc3)c2O)O1 [Compound C32]
**A:** 191 to 193 °C

**Q:** Name the recorded melting point of the compound listed here: CC1(C)C=Cc2c(ccc(/C=N/c3ccc(NS(=O)(=O)c4ccccc4)cc3)c2O)O1 [Compound C17]
**A:** 134 to 136 °C

**Q:** Indicate the recorded melting point value for this compound: CC1(C)C=Cc2c(ccc(/C=N/c3ccc(NS(=O)(=O)c4cc(Cl)cc(Cl)c4)cc3)c2O)O1 [Compound C23]
**A:** 211 to 213 °C

**Q:** Give the measured melting point for CC(C)=CCCC1(C)C=Cc2c(ccc(/C=N/c3ccc(NS(=O)(=O)c4ccc(C)cc4)cc3)c2O)O1 (stereo not drawn) [Compound C42]
**A:** 95 to 97 °C

**Q:** Give melting point for CC1(C)C=Cc2c(ccc(/C=N/c3ccc(NS(=O)(=O)Cc4ccccc4)cc3)c2O)O1 [Compound C28]
**A:** 143 to 145 °C

**Q:** Kindly indicate its recorded melting point. Item: CC1(C)C=Cc2c(ccc(/C=N/c3ccc(NS(=O)(=O)c4ccc(C(F)(F)F)cc4)cc3)c2O)O1 [Compound C2]
**A:** 132 to 134 °C

**Q:** Tell me melting point reported for CC1(C)C=Cc2c(ccc(/C=N/c3ccc(NS(=O)(=O)C4CC4)cc3)c2O)O1 [Compound C13]
**A:** 147 to 149 °C

**Q:** Item Cc1cccc(S(=O)(=O)Nc2ccc(/N=C/c3ccc4c(c3O)C=CC(C)(C)O4)cc2)c1 [Compound C27] : provide melting point
**A:** 152 to 154 °C

---

endpoint_label: melting point

**Q:** Specify measured melting point for CCCCS(=O)(=O)Nc1ccc(/N=C/c2ccc3c(c2O)C=CC(C)(C)O3)cc1 .
**A:** 132 to 134 °C

**Q:** Specify measured melting point for CC1(C)C=Cc2c(ccc(/C=N/c3ccc(NS(=O)(=O)c4ccc(Cl)cc4Cl)cc3)c2O)O1 .
**A:** 154 to 156 °C

**Q:** Give a short answer stating reported melting point for CC1(C)C=Cc2c(ccc(/C=N/c3ccc(NS(=O)(=O)c4cccc(C(F)(F)F)c4)cc3)c2O)O1 .
**A:** 123 to 125 °C

**Q:** For the molecule COc1ccc(S(=O)(=O)Nc2ccc(/N=C/c3ccc4c(c3O)C=CC(C)(C)O4)cc2)cc1 , report melting point.
**A:** 139 to 141 °C

**Q:** Return value of melting point for input CC1(C)C=Cc2c(ccc(/C=N/c3ccc(NS(=O)(=O)c4ccccc4C(F)(F)F)cc3)c2O)O1 , no commentary.
**A:** 130 to 132 °C

**Q:** Look up and state reported melting point for CC1(C)C=Cc2c(ccc(/C=N/c3ccc(NS(=O)(=O)c4ccc(OC(F)(F)F)cc4)cc3)c2O)O1
**A:** 128 to 130 °C

**Q:** Look up melting point of CC1(C)C=Cc2c(ccc(/C=N/c3ccc(NS(=O)(=O)c4cc(F)cc(F)c4)cc3)c2O)O1 and report it.
**A:** 207 to 209 °C

**Q:** For CC1(C)C=Cc2c(ccc(/C=N/c3ccc(NS(=O)(=O)c4ccc(F)cc4)cc3)c2O)O1 , write its melting point.
**A:** 144 to 146 °C

**Q:** Quote melting point reported for CC1(C)C=Cc2c(ccc(/C=N/c3ccc(NS(=O)(=O)c4cccc(F)c4)cc3)c2O)O1 please.
**A:** 164 to 166 °C

**Q:** Give the measured melting point for CC1(C)C=Cc2c(ccc(/C=N/c3ccc(NS(=O)(=O)c4cccc(Br)c4)cc3)c2O)O1
**A:** 161 to 163 °C

**Q:** Give melting point for CC(C)=CCCC1(C)C=Cc2c(ccc(/C=N/c3ccc(NS(=O)(=O)c4cccc(F)c4)cc3)c2O)O1 (stereo not drawn)
**A:** 113 to 115 °C

**Q:** Please report melting point for the following molecule: CC1(C)C=Cc2c(ccc(/C=N/c3ccc(NS(=O)(=O)c4cc(Cl)ccc4Cl)cc3)c2O)O1
**A:** 148 to 150 °C

**Q:** Write down melting point measured for item CC(C)=CCCC1(C)C=Cc2c(ccc(/C=N/c3ccc(NS(=O)(=O)c4cccc(C)c4)cc3)c2O)O1 (stereo not drawn)
**A:** 84 to 86 °C

**Q:** Given the molecule CC(C)=CCCC1(C)C=Cc2c(ccc(/C=N/c3ccc(NS(=O)(=O)c4ccc(Cl)cc4)cc3)c2O)O1 (stereo not drawn) , write its reported melting point.
**A:** 115 to 117 °C

**Q:** Return melting point for the following molecule: CC1(C)C=Cc2c(ccc(/C=N/c3ccc(NS(=O)(=O)c4ccccc4Cl)cc3)c2O)O1
**A:** 166 to 168 °C

**Q:** Return reported melting point. Input molecule: CCc1ccc(S(=O)(=O)Nc2ccc(/N=C/c3ccc4c(c3O)C=CC(C)(C)O4)cc2)cc1
**A:** 121 to 123 °C

**Q:** Give melting point for CC1(C)C=Cc2c(ccc(/C=N/c3ccc(NS(=O)(=O)c4ccc([N+](=O)[O-])cc4)cc3)c2O)O1
**A:** 164 to 166 °C

**Q:** Identify the reported melting point for the following entry. CC1(C)C=Cc2c(ccc(/C=N/c3ccc(NS(=O)(=O)c4cccnc4)cc3)c2O)O1
**A:** 150 to 152 °C

**Q:** Name the recorded melting point of the item Cc1c(Cl)cccc1S(=O)(=O)Nc1ccc(/N=C/c2ccc3c(c2O)C=CC(C)(C)O3)cc1 in your answer.
**A:** 193 to 195 °C

**Q:** Name the recorded melting point of the molecule listed here: CC1(C)C=Cc2c(ccc(/C=N/c3ccc(NS(=O)(=O)c4ccccc4Br)cc3)c2O)O1
**A:** 170 to 172 °C

**Q:** Supply reported melting point belonging to this molecule: CC(C)=CCCC1(C)C=Cc2c(ccc(/C=N/c3ccc(NS(=O)(=O)c4ccc(Br)s4)cc3)c2O)O1 (stereo not drawn)
**A:** 75 to 77 °C

**Q:** Could you please provide reported melting point for CC(C)=CCCC1(C)C=Cc2c(ccc(/C=N/c3ccc(NS(=O)(=O)c4ccc(C(F)(F)F)cc4)cc3)c2O)O1 (stereo not drawn) ? Thanks!
**A:** 130 to 132 °C

**Q:** Supply measured melting point of CC1(C)C=Cc2c(ccc(/C=N/c3ccc(NS(=O)(=O)c4cccc(Cl)c4F)cc3)c2O)O1 in your reply.
**A:** 193 to 195 °C

**Q:** Could you please provide reported melting point for Cc1noc(C)c1S(=O)(=O)Nc1ccc(/N=C/c2ccc3c(c2O)C=CC(C)(C)O3)cc1 ? Thanks!
**A:** 195 to 197 °C

**Q:** Return melting point for the following molecule: CCCCCCCCS(=O)(=O)Nc1ccc(/N=C/c2ccc3c(c2O)C=CC(C)(C)O3)cc1
**A:** 94 to 96 °C

**Q:** Give a short answer stating reported melting point for CC1(C)C=Cc2c(ccc(/C=N/c3ccc(NS(=O)(=O)c4cc(F)ccc4F)cc3)c2O)O1 .
**A:** 180 to 182 °C

**Q:** Give melting point for CC1(C)C=Cc2c(ccc(/C=N/c3ccc(NS(=O)(=O)c4ccc(Cl)s4)cc3)c2O)O1
**A:** 141 to 143 °C

**Q:** Return melting point (reported value) for this molecule: CC1(C)C=Cc2c(ccc(C=Nc3ccc(NS(=O)(=O)CC45CCC(CC4=O)C5(C)C)cc3)c2O)O1 (stereo not drawn)
**A:** 186 to 188 °C

**Q:** Give melting point for the following molecule: CC(C)=CCCC1(C)C=Cc2c(ccc(/C=N/c3ccc(NS(=O)(=O)c4cc(F)cc(F)c4)cc3)c2O)O1 (stereo not drawn)
**A:** 138 to 140 °C

**Q:** Identify melting point associated with the molecule Cc1ccc(S(=O)(=O)Nc2ccc(/N=C/c3ccc4c(c3O)C=CC(C)(C)O4)cc2)cc1
**A:** 127 to 129 °C
